Test system: M14
Test: NCI tumour cell line growth inhibition, 48 h
Activity calls are given as the source filed them. Cut-off read from the data, not from the text of the source: active = GI50 up to about 1.1 µM and inactive = higher.
Respond only with the outcome that fits, drawn from active, inactive

Example entries and their recorded answers appear below.
COc1cc([C@@H]2OCC3C(c4ccc5c(c4)OCO5)OCC32)cc(OC)c1OC (stereo not given in full)    inactive
Oc1cccc2c1[nH]c1c(C3=C[C@@]4(O)CC/C=C\CCCCN5CC[C@@H]3[C@]3(CC6/C=C\CCCCN6[C@H]34)C5)nccc12 (stereo not given in full)    active
O=C(NC(Cc1c[nH]c2ccccc12)C(=O)Nc1ccc(Br)cc1)OCc1ccccc1 (stereo not given)    inactive
CC(=O)OCC1OC(n2c(C)c(/N=N/c3ccc(C)cc3)c(C)c(C#N)c2=S)C(OC(C)=O)C(OC(C)=O)C1OC(C)=O (stereo not given)    inactive
CCOC(=O)C(=O)Nc1c(C(C)C)cccc1C(C)C    inactive
CC(C)=CCC/C(C)=C/CC/C(C)=C/CSc1ccc(Cl)cc1C(=O)O    inactive
C/C(=N\Nc1cc(CN2CCCC2)c(-c2ccc(Cl)cc2)nn1)C(=O)O    inactive
CC(C)CC1c2[nH]c3ccccc3c2C[C@H]2C(=O)NC(COC(C)(C)C)C(=O)N12 (stereo not given in full)    inactive

q: Record request — test call for "O=C(O)c1ccccc1C(=O)Nc1cc2c(cc1Br)-c1ccccc1C2=O"
a: inactive

q: Record request — test call for COC(=O)C1=C(C(=O)OC)C2(C)OC1C(=O)C21CC1 (stereo not given)
a: inactive

q: Record request — test call for "N#Cc1c(-c2ccccc2)c(CN2CCCCC2)c(=O)n2c1[nH]c1ccccc12"
a: inactive

q: Record request — test call for CC12CCC3[C@@H](CC3(C)C)C(O)(CCC1=O)C2 (stereo not given in full)
a: inactive

q: Record request — test call for CSc1nc2c(c(=O)[nH]1)N=C(c1ccc(Cl)cc1)CC(c1ccccc1)N2 (stereo not given)
a: inactive

q: Record request — test call for "Cc1cc(NS(=O)(=O)c2ccc(NC(=O)c3ccc(Cl)c4c(Nc5ccc(S(=O)(=O)N=C(N)N)cc5)c5ccccc5nc34)cc2)no1"
a: inactive

q: Record request — test call for COC(=O)C(CC(=O)Nc1ccc(C)cc1)C(=O)C(=O)Nc1c(C(C)C)cccc1C(C)C (stereo not given)
a: inactive

q: Record request — test call for "CSc1ccc(/C=C2\N=C(c3ccccc3)N(c3nc4c(Cl)cc(Cl)cc4s3)C2=O)cc1"
a: inactive
